Molecular target: CaBem1-D1
Assay: SPOT peptide array binding signal intensity (averaged, normalized) (arbitrary units (background-subtracted, floor 0; scale differs between SH3 domains)); higher = stronger binding of the SH3 domain to the peptide
PROPERTY_MEASURED: SPOT peptide array binding signal intensity
Just the number, please, no unit attached.

[
  {
    "BINDER": "RFKRHRLEFPFNESE",
    "MEAS_VALUE": 164
  },
  {
    "BINDER": "PPPPPPPPPPLPQSL",
    "MEAS_VALUE": 5
  },
  {
    "BINDER": "TPTSGPPLLPPRNTM",
    "MEAS_VALUE": 0.5
  },
  {
    "BINDER": "GRSRLFPHSPLGRSS",
    "MEAS_VALUE": 35
  },
  {
    "BINDER": "AGKRRLPLVRFKASD",
    "MEAS_VALUE": 80.5
  }
]

SPOT peptide array binding signal intensity for AIPPPVPNRPGGTTN is 0.5

SPOT peptide array binding signal intensity for KRKRRLPVSEDTNTK is 3

SPOT peptide array binding signal intensity for LFMKGTPEFPKSGFS is 272

SPOT peptide array binding signal intensity for IKKRNKIRLPSGSPE is 16

SPOT peptide array binding signal intensity for RSVKRPRRAPRPVVS is 140
